measurement target: MMP-9 (Homo sapiens, UniProt P14780)
Sequence (P14780 107-707 limits assumed): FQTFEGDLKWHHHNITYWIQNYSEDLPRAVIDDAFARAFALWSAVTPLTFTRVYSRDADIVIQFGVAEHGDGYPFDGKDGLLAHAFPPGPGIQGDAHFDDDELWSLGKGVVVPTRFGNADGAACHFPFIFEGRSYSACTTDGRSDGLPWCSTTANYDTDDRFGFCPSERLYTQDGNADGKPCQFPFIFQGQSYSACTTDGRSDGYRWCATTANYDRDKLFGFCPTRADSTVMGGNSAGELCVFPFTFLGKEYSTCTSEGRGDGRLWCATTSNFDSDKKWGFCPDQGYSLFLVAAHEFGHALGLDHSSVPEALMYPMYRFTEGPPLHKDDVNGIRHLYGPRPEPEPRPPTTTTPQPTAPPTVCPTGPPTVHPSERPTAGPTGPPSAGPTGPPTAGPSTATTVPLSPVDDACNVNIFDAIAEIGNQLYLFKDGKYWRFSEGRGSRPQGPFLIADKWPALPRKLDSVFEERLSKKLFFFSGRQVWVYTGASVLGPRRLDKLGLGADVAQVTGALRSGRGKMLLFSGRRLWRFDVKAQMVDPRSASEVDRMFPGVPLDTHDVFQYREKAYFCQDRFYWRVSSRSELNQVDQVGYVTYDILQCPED
Where a name gives a salt, the structure may show the parent alone.
Under this convention, rule met denotes IC50 strictly below 300 nM and rule not met denotes IC50 at or above 300 nM.

As a guide, the following entries are already answered.
1) COc1ccc(S(=O)(=O)N2CCN(c3ccc(C(F)(F)F)cc3)CC2)c(C(=O)NO)c1OC [Example 26]: rule not met
2) COc1ccc(S(=O)(=O)N2CCC(Oc3ccc4c(c3)OCO4)CC2)c(C(=O)NO)c1OC [Example 50]: rule met
3) CCCCOc1ccc(OC2CCN(S(=O)(=O)c3ccc(OC)c(OC)c3C(=O)NO)CC2)cc1 [Example 54]: rule met
4) COc1ccc(S(=O)(=O)N2CCC(Oc3ccc(OC(F)(F)F)cc3)CC2)c(C(=O)NO)c1OC [Example 33]: rule met
5) COc1ccc(N2CCN(S(=O)(=O)c3ccc(OC)c(OC)c3C(=O)NO)CC2)cc1 [Example 41, monohydrochloride]: rule not met

For the next question, use this compound.
### Prompt hey, is IC50 for O=C(NO)c1c(S(=O)(=O)N2CCC(Oc3ccc(C(F)(F)F)cc3)CC2)ccc2c1OCO2 [Example 36] lower than 300 nM or not?
### Response rule met

---

measurement target: MMP-2 (Homo sapiens)
Construct: made in house; provided by Dr. Gregory Goldberg, Washington University
Sequence (P08253 110-660): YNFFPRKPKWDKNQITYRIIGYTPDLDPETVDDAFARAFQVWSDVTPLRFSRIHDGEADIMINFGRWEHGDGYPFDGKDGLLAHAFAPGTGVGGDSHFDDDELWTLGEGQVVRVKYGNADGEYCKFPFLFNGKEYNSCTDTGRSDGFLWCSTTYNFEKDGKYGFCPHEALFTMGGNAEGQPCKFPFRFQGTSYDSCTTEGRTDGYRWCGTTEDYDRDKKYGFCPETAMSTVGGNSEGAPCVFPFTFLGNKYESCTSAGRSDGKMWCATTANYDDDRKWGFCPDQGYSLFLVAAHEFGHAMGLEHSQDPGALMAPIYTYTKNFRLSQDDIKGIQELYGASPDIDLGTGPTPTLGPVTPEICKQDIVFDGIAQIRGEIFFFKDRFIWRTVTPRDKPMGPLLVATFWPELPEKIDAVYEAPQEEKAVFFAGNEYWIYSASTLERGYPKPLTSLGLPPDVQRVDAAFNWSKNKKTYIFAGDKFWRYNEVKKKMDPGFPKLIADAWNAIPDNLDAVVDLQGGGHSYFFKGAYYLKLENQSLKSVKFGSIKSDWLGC
method description: In vitro metalloprotease inhibition, fluorogenic MCA peptide substrate
Assay type: biochemical
experimental parameters: Inhibition Table B
Where a name gives a salt, the structure may show the parent alone.
Under this convention, Condition met denotes IC50 strictly below 6 nM and Condition not met denotes IC50 at or above 6 nM.

As a guide, the following entries are already answered.
1) COc1ccc(S(=O)(=O)N2CCC(Oc3ccc(-c4ccccc4C(F)(F)F)cc3)CC2)c(C(=O)NO)c1OC: Condition not met
2) COc1ccc(S(=O)(=O)N2CCC(Oc3ccccc3)CC2)c(C(=O)NO)c1OC: Condition met
3) COc1ccc(S(=O)(=O)N2CCN(Cc3ccccc3)CC2)c(C(=O)NO)c1OC [Example 52, monohydrochloride]: Condition not met
4) COc1ccc(C(C)C)cc1-c1ccc(OC2CCN(S(=O)(=O)c3ccc(OC)c(OC)c3C(=O)NO)CC2)cc1: Condition not met
5) COc1ccccc1-c1ccc(OC2CCN(S(=O)(=O)c3ccc(OC)c(OC)c3C(=O)NO)CC2)cc1: Condition not met
6) O=C(NO)c1c(Cl)sc(Cl)c1S(=O)(=O)N1CCC(Oc2ccc(C(F)(F)F)cc2)CC1: Condition not met
7) COc1ccc(OC)c(S(=O)(=O)N2CCC(Oc3ccc(C(F)(F)F)cc3)CC2)c1C(=O)NO: Condition not met
8) O=C(NO)c1ccccc1S(=O)(=O)N1CCC(n2c(=O)[nH]c3ccccc32)CC1: Condition not met
9) COc1ccc(S(=O)(=O)N2CCC(Oc3ccc(Cl)cc3)CC2)c(C(=O)NO)c1OC: Condition met
10) CCCCOc1ccc(N2CCN(S(=O)(=O)c3ccc(OC)c(OC)c3C(=O)NO)CC2)cc1C [Example 56, monohydrochloride]: Condition not met

### Prompt hey, is IC50 for "O=C(NO)c1c(S(=O)(=O)N2CCC(Oc3ccc(C(F)(F)F)cc3)CC2)ccc2c1OCO2" lower than 6 nM or not?
### Response Condition met

### Prompt hey, is IC50 for COc1ccc(S(=O)(=O)N2CCN(Cc3ccc(OC(F)(F)F)cc3)CC2)c(C(=O)NO)c1OC [Example 53, monohydrochloride] lower than 6 nM or not?
### Response Condition not met

### Prompt hey, is IC50 for "COC1CCN(S(=O)(=O)c2ccc3c(c2C(=O)NO)OCCO3)CC1" lower than 6 nM or not?
### Response Condition not met

### Prompt hey, is IC50 for "COc1ccc(S(=O)(=O)N2CCC(Oc3ccc(OC(F)(F)F)cc3)CC2)c(C(=O)NO)c1OC" lower than 6 nM or not?
### Response Condition met
